TGT: FXR (Homo sapiens)
Sequence (Q96RI1 whole entry): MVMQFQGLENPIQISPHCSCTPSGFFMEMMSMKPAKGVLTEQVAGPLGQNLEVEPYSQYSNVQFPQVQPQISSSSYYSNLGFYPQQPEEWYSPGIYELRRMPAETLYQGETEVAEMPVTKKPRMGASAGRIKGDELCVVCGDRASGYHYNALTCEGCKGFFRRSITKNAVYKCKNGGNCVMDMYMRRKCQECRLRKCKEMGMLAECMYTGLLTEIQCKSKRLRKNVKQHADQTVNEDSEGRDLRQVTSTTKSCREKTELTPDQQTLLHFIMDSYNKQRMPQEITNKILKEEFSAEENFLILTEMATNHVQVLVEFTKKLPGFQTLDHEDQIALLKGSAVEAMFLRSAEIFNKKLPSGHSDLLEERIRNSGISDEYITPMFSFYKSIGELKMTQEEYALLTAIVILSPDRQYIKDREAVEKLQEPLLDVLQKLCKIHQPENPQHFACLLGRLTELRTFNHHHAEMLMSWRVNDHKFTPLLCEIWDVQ
TEST_SUMMARY: FXR luciferase reporter transactivation assay (antagonism) on HepG2 cells
DETAILS: transactivation assay, concentration-response; mean ± SEM, at least three experiments
Method: The antagonistic activity on FXR was investigated using HepG2 cells transfected with 100 ng of pSG5-FXR and pSG5-RXR, 200 ng of the reporter vector p(hsp27)-TK-LUC containing the FXR response element, and 100 ng of the pGL4.70 vector encoding the human Renilla gene used as a transfection control. […] The activity of luciferase was measured using the Glomax 20/20 luminometer (Promega, Madison, WI, USA) and normalized with Renilla activities.
READOUT: IC50 (µM)

P. OCc1ccc(CN2CCC(c3nc(-c4ccc5ccccc5c4)no3)CC2)cc1
Q. CCCCCN1CCC(c2nc(-c3ccc4ccccc4c3)no2)CC1
Which of the two gives a bigger number for IC50: P or Q ? Indicate which entry you chose by stating its label.
Q
